So I've got a bunch of variants here, and I need their ratio to parent values.
B1: TBLR1-LgBiT wild type [not stated] / ANKRD11-SmBiT [not stated] (parent complex)
chain 1: MSISSDEVNFLVYRYLQESGFSHSAFTFGIESHISQSNINGALVPPAALISIIQKGLQYVEAEVSINEDGTLFDGRPIESLSLIDAVMPDVVQTRQQAYRDKLAQQQAAAAAAAAAAASQQGSAKNGENTANGEENGAHTIANNHTDMMEVDGDVEIPPNKAVVLRGHESEVFICAWNPVSDLLASGSGDSTARIWNLSENSTSGSTQLVLRHCIREGGQDVPSNKDVTSLDWNSEGTLLATGSYDGFARIWTKDGNLASTLGQHKGPIFALKWNKKGNFILSAGVDKTTIIWDAHTGEAKQQFPFHSAPALDVDWQSNNTFASCSTDMCIHVCKLGQDRPIKTFQGHTNEVNAIKWDPTGNLLASCSDDMTLKIWSMKQDNCVHDLQAHNKEIYTIKWSPTGPGTNNPNANLMLASASFDSTVRLWDVDRGICIHTLTKHQEPVYSVAFSPDGRYLASGSFDKCVHIWNTQTGALVHSYRGTGGIFEVCWNAAGDKVGASASDGSVCVLDLRK
chain 2: MPKGGCPKAPQQEELPLSSDMVEKQTGKKDKDKVSLTKTPKLERGDGGKEVRERASKRKLPFTAGANGEQKDSDTEKQGPERKRIKKEPVTRKAGLLFGMGLSGIRAGYPLSERQQVALLMQMTAEESANSPVDTTPKHPSQSTVCQKGTPNSASKTKDKVNKRNERGETRLHRAAIRGDARRIKELISEGADVNVKDFAGWTALHEACNRGYYDVAKQLLAAGAEVNTKGLDDDTPLHDAANNGHYKVVKLLLRYGGNPQQSNRKGETPLKVANSPTMVNLLLGKGTYTSSEESSTESSEEEDAPSFAPSSSVDGNNTDSEFEKGLKHKAKNPEPQKATAPVKDEYEFDEDDEQDRVPPVDDKHLLKKDYRKETKSNSFISIPKMEVKSYTKNNTIAPKKASHRILSDTSDEEDASVTVGTGEKLRLSAHTILPGSKTREPSNAKQQKEKNKVKKKRKKETKGREVRFGKRSDKFCSSESESESSESGEDDRDSLGSSGCLKGSPLVLKDPSLFSSLSASSTSSHGSSAAQKQNPSHTDQHTKHWRTDNWKTISSPAWSEVSSLSDSTRTRLTSESDYSSEGSSVESLKPVRKRQEHRKRASLSEKKSPFLSSAEGAVPKLDKEGKVVKKHKTKHKHKNKEKGQCSISQELKLKSFTYEYEDSKQKSDKAILLENDLSTENKLKVLKHDRDHFKKEEKLSKMKLEEKEWLFKDEKSLKRIKDTNKDISRSFREEKDRSNKAEKERSLKEKSPKEEKLRLYKEERKKKSKDRPSKLEKKNDLKEDKISKEKEKIFKEDKEKLKKEKVYREDSAFDEYCNKNQFLENEDTKFSLSDDQRDRWFSDLSDSSFDFKGEDSWDSPVTDYRDMKSDSVAKLILETVKEDSKERRRDSRAREKRDYREPFFRKKDRDYLDKNSEKRKEQTEKHKSVPGYLSEKDKKRRESAEAGRDRKDALESCKERRDGRAKPEEAHREELKECGCESGFKDKSDGDFGKGLEPWERHHPAREKEKKDGPDKERKEKTKPERYKEKSSDKDKSEKSILEKCQKDKEFDKCFKEKKDTKEKHKDTHGKDKERKASLDQGKEKKEKAFPGIISEDFSEKKDDKKGKEKSWYIADIFTDESEDDRDSCMGSGFKMGEASDLPRTDGLQEKEEGREAYASDRHRKSSDKQHPERQKDKEPRDRRKDRGAADAGRDKKEKVFEKHKEKKDKESTEKYKDRKDRASVDSTQDKKNKQKLPEKAEKKHAAEDKAKSKHKEKSDKEHSKERKSSRSADAEKSLLEKLEEEALHEYREDSNDKISEVSSDSFTDRGQEPGLTAFLEVSFTEPPGDDKPRESACLPEKLKEKERHRHSSSSSKKSHDRERAKKEKAEKKEKGEDYKEGGSRKDSGQYEKDFLEADAYGVSYNMKADIEDELDKTIELFSTEKKDKNDSEREPSKKIEKELKPYGSSAINILKEKKKREKHREKWRDEKERHRDRHADGLLRHHRDELLRHHRDEQKPATRDKDSPPRVLKDKSRDEGPRLGDAKLKEKFKDGAEKEKGDPVKMSNGNDKVAPSKDPGKKDARPREKLLGDGDLMMTSFERMLSQKDLEIEERHKRHKERMKQMEKLRHRSGDPKLKEKAKPADDGRKKGLDIPAKKPPGLDPPFKDKKLKESTPIPPAAENKLHPASGADSKDWLAGPHMKEVLPASPRPDQSRPTGVPTPTSVLSCPSYEEVMHTPRTPSCSADDYADLVFDCADSQHSTPVPTAPTSACSPSFFDRFSVASSGLSENASQAPARPLSTNLYRSVSVDIRRTPEEEFSVGDKLFRQQSVPAASSYDSPMPPSMEDRAPLPPVPAEKFACLSPGYYSPDYGLPSPKVDALHCPPAAVVTVTPSPEGVFSSLQAKPSPSPRAELLVPSLEGALPPDLDTSEDQQATAAIIPPEPSYLEPLDEGPFSAVITEEPVEWAHPSEQALASSLIGGTSENPVSWPVGSDLLLKSPQRFPESPKRFCPADPLHSAAPGPFSASEAPYPAPPASPAPYALPVAEPGLEDVKDGVDAVPAAISTSEAAPYAPPSGLESFFSNCKSLPEAPLDVAPEPACVAAVAQVEALGPLENSFLDGSRGLSHLGQVEPVPWADAFAGPEDDLDLGPFSLPELPLQTKDAADGEAEPVEESLAPPEEMPPGAPGVINGGDVSTVVAEEPPALPPDQASTRLPAELEPEPSGEPKLDVALEAAVEAETVPEERARGDPDSSVEPAPVPPEQRPLGSGDQGAEAEGPPAASLCAPDGPAPNTVAQAQAADGAGPEDDTEASRAAAPAEGPPGGIQPEAAEPKPTAEAPKAPRVEEIPQRMTRNRAQMLANQSKQGPPPSEKECAPTPAPVTRAKARGSEDDDAQAQHPRKRRFQRSTQQLQQQLNTSTQQTREVIQQTLAAIVDAIKLDAIEPYHSDRANPYFEYLQIRKKIEEKRKILCCITPQAPQCYAEYVTYTGSYLLDGKPLSKLHIPVIAPPPSLAEPLKELFRQQEAVRGKLRLQHSIEREKLIVSCEQEILRVHCRAARTIANQAVPFSACTMLLDSEVYNMPLESQGDENKSVRDRFNARQFISWLQDVDDKYDRMKTCLLMRQQHEAAALNAVQRMEWQLKVQELDPAGHKSLCVNEVPSFYVPMVDVNDDFVLLPA

- Variants of: B1
- Protocol: NanoLuc complementation assay; n = 3–5 independent transfections per TBLR1 mutant; read off a plot

Quick one: ratio to parent of chain 1 L83Q ?
~0.06

Suppose we examine the variant chain 1 F10L ; what ratio to parent value has been reported?
~0.1

Would you kindly share the measured ratio to parent for chain 1 G70D ?
~0.07

// query ratio to parent value for entry chain 1 E63K
~0.37

Reported ratio to parent for chain 1 G29D : what is it?
~0.06
